- system_under_test: NDM-1 (Klebsiella pneumoniae, UniProt C7C422)
- Sequence (C7C422 whole entry, looked up, species assumed): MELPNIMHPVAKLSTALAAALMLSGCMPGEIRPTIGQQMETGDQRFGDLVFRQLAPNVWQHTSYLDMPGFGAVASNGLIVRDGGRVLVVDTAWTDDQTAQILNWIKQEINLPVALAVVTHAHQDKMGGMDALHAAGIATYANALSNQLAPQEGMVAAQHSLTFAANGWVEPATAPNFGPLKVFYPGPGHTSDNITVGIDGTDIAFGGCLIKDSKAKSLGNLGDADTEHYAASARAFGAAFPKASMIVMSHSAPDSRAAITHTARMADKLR
- procedure_text: biochemical
- Format: biochemical
- experimental_setup: CCF2-FA substrate, 2 hours at 25° C; read-out: NDM-1 IC50
reported_property: IC50 (nM)
Report the figure in nM without appending any unit label.

In [3]: df
Out[3]:
                      smiles_representation  endpoint_value
0  Nc1nc2cccc(-c3ccc(S(=O)(=O)[C@@H]4CCNC4)c(S(N)(=O)=O)c3-c3nn[nH]n3)c2[nH]1           0.149

IN: Bench note: what IC50 did NS(=O)(=O)c1c(S(=O)(=O)C2CNC2)ccc(-c2cccc3sc(C(=O)O)nc23)c1-c1nnn[nH]1 show?
OUT: 0.0709

IN: Bench note: what IC50 did NCCS(=O)(=O)c1ccc(-c2cccc3[nH]c(C(F)(F)F)nc23)c(-c2nn[nH]n2)c1S(N)(=O)=O show?
OUT: 0.17

====

- system_under_test: IMP-1 (Serratia marcescens, UniProt P52699)
- Sequence (P52699 whole entry, looked up, species assumed): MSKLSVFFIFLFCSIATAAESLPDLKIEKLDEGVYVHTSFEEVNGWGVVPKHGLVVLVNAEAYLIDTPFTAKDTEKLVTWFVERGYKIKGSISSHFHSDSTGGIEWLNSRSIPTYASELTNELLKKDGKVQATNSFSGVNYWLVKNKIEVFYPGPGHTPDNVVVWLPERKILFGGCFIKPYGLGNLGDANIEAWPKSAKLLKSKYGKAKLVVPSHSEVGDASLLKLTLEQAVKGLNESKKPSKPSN
- procedure_text: biochemical
- Type: biochemical
- experimental_setup: CCF2-FA substrate, 2 hours at 25° C; read-out: IMP-1 IC50
reported_property: pIC50
Expect pIC50 as a plain number equal to -log10 of the molar concentration.

Solved cases below.
compound	system_under_test	endpoint_value
Cc1ccc(-c2ccc(S(=O)(=O)C3CNC3)c(S(N)(=O)=O)c2-c2nn[nH]n2)c2sc(N)nc12	IMP-1 (Serratia marcescens, UniProt P52699)	9.53
NS(=O)(=O)c1c(S(=O)(=O)C2CCNCC2)ccc(-c2ccc(C3CCNCC3)cc2)c1-c1nnn[nH]1	IMP-1 (Serratia marcescens, UniProt P52699)	9.28
NCCS(=O)(=O)c1ccc(-c2cccc3[nH]c(CN)nc23)c(-c2nn[nH]n2)c1S(N)(=O)=O	IMP-1 (Serratia marcescens, UniProt P52699)	8.72
Nc1nc2cccc(-c3ccc(S(=O)(=O)C4CCNCC4)c(S(N)(=O)=O)c3-c3nn[nH]n3)c2[nH]1	IMP-1 (Serratia marcescens, UniProt P52699)	8.93
C[C@H](N)CS(=O)(=O)c1ccc(-c2cccc3[nH]c(N)nc23)c(-c2nn[nH]n2)c1S(N)(=O)=O	IMP-1 (Serratia marcescens, UniProt P52699)	9.21
Nc1nc2c(-c3ccc(S(=O)(=O)CCO)c(S(N)(=O)=O)c3-c3nn[nH]n3)cccc2s1	IMP-1 (Serratia marcescens, UniProt P52699)	9.35
NS(=O)(=O)c1c(S(=O)(=O)C2CNC2)ccc(-c2cccn3cncc23)c1-c1nnn[nH]1	IMP-1 (Serratia marcescens, UniProt P52699)	8.63
NCCNC(=O)c1cccc(-c2ccc(S(=O)(=O)CCN)c(S(N)(=O)=O)c2-c2nn[nH]n2)c1N	IMP-1 (Serratia marcescens, UniProt P52699)	8.29
Cn1c(N)nc2c(-c3ccc(S(C)(=O)=O)c(S(N)(=O)=O)c3-c3nn[nH]n3)cccc21	IMP-1 (Serratia marcescens, UniProt P52699)	9.26
Cc1n[nH]c2cc(F)c(-c3ccc(S(=O)(=O)CCN)c(S(N)(=O)=O)c3-c3nnn[nH]3)cc12.O=C(O)C(F)(F)F [Example 162, 2,2,2-trifluoroacetate]	IMP-1 (Serratia marcescens, UniProt P52699)	8.55

IN: Bench note: what pIC50 did Cn1nc(N)c2c(-c3ccc(S(=O)(=O)C4CNC4)c(S(N)(=O)=O)c3-c3nnn[nH]3)cccc21 show?
OUT: 8.83

IN: Bench note: what pIC50 did Cc1cc(-c2ccc(S(=O)(=O)C3CNC3)c(S(N)(=O)=O)c2-c2nnn[nH]2)cnc1C#N.O=C(O)C(F)(F)F [Example 99, 2,2,2-trifluoroacetate] show?
OUT: 7.86

The values you see were collected from patent US10227331B2.
